All values here come from ChEMBL document CHEMBL3988442.

Examples of molecules with documented Percent Effect follow.
# Species: Homo sapiens
# measurement description: To identify inhibition of the IFN signalling (Jak-Stat) pathway via expression of an eGFP reporter gene under the control of an IFN-stimulated response element (ISRE) containing MxA promoter.
# Format: functional
# Set-up: scale not given: direction of the effect not stated beside the values
# stated conditions: 30 µM
property name: Percent Effect

O=C(c1cnc(-c2cccs2)s1)N1CCCC(n2cccn2)C1 (stereo not drawn) = 13.5%
Cc1cccc(C(=O)N2CCN(S(C)(=O)=O)[C@@H](C)C2)c1C = 9.6%
CN(C)c1cc2c(nn1)CCN(C(=O)C1CCc3ccccc31)C2 (stereo not drawn) = 15.8%

====

# assay system: Proteasome subunit beta (Trypanosoma cruzi)
# measurement description: Trypanosoma cruzi proteasome chymotrypsin-like activity (TcProtChymo) assay. Also: in the data most compounds retested in dose-response had high values.
# Type: functional
# Parameters: scale not given: direction of the effect not stated beside the values
# stated conditions: 9.37 µM
The label depends only on Percent Effect: True if it is at least 10%, False if it is smaller.

COc1ccc(C(=O)NCCc2nnc3ccccn23)c(OC)c1 = True
CC(=O)N(Cc1ncc(C(C)C)o1)C1CCN(Cc2nccn2C)C1 (centres undefined) = True
CCC(C(=O)NCc1ccncc1)N(c1cccc(C)c1)S(C)(=O)=O (centres undefined) = False
Cc1nn(C)cc1CNC(=O)c1cn(CCC2CCCCN2)nn1 (centres undefined) = True
Cc1nc(C)n(CC2CCCCN2CCCS(=O)(=O)N(C)C)n1 (centres undefined) = True
Cc1csc(NC(=O)CN(C)CC2CCCN2c2cccnn2)n1 (centres undefined) = True
Cc1nn(CC(=O)N2CCN(c3ccncc3)CC2)c(C)c1Cl = True
CC(Cn1ccnc1)NC(=O)C1(c2ccc(F)cc2)CC1 (centres undefined) = False
CCC(=O)Nc1nnc(CCCOc2ccccc2)s1 = True

====

# assay system: Chromo domain-containing protein 1 (Saccharomyces cerevisiae (strain ATCC 204508 / S288c) (Baker's yeast)) (UniProt P32657)
# Sequence (P32657 whole entry, the tested form may be a part): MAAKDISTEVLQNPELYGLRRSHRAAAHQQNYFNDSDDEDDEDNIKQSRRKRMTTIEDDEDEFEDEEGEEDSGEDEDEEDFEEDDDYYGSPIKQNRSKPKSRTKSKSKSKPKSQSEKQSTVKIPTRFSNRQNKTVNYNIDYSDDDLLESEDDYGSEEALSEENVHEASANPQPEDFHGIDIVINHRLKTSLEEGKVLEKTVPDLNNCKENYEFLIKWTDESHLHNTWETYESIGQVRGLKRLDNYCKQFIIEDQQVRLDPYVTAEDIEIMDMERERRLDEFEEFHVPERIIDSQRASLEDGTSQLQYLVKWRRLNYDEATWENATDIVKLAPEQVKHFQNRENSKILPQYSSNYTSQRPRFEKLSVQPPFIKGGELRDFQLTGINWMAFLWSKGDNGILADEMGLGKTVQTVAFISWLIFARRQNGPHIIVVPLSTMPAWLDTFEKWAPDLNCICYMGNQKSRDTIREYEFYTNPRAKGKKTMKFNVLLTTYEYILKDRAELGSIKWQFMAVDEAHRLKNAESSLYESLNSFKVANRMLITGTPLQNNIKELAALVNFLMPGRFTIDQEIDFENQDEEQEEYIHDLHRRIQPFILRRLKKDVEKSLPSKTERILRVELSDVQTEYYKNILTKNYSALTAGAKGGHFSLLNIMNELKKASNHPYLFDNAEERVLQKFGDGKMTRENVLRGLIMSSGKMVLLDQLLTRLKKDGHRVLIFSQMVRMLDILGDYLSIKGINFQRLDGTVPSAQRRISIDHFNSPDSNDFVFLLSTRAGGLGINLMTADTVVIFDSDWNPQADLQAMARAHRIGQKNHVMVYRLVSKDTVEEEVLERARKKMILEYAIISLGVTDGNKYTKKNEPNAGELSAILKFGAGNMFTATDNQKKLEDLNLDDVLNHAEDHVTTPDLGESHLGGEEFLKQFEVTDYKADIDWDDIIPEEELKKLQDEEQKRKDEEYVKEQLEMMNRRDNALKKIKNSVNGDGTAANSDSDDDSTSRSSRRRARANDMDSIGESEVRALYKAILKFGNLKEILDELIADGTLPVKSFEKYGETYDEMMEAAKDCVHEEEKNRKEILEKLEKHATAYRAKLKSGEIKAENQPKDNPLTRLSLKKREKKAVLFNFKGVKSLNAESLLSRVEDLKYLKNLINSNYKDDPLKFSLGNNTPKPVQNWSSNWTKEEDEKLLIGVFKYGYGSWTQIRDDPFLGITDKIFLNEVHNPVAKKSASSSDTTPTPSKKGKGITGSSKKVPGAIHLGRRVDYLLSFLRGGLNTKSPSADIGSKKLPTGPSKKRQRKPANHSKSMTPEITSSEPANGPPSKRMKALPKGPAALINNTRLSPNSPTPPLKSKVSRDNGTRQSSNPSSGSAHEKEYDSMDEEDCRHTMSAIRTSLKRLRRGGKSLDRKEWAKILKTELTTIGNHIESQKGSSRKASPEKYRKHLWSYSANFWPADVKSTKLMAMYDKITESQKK
# measurement description: ScCHD-1 Enzyme Inhibition Assay; also: in the data most compounds retested in dose-response had high values
# Type: functional
# Set-up: scale not given: direction of the effect not stated beside the values
# stated conditions: 30 µM
Catalogue of compounds with associated Percent Effect
property name: Percent Effect (%)

O=C(Cc1ccsc1)NCC1OCCc2cn(CC3CC3)nc21 (stereo not drawn) = -0.722
CCN(Cc1ccc2c(c1)OCO2)C(=O)NC(C)Cn1cccn1 (stereo not drawn) = -8.47
Cc1cc(CN(C)C2CCCN(c3cccnn3)C2)on1 (stereo not drawn) = -1.67
c1cnc(-c2cnc(N3CCSCC3)nc2C2CCCO2)cn1 (stereo not drawn) = -13.3
Cc1nc(COC[C@@H]2CC[C@H]3[C@H](CCN3c3ncccn3)O2)cs1 = 2.8
Cc1nc(CN2CCCN(C(=O)C3(C#N)CCCCC3)CC2)cs1 = -3.28
Cc1noc([C@H]2C[C@@H]3CCN(CC4CC4)C[C@H]3O2)n1 = -3.28
Cn1cnnc1C1CCCN(C(=O)NCCNc2ccccn2)C1 (stereo not drawn) = -9.77
CC1CCCN(C(=O)c2csc(S(N)(=O)=O)c2)CC1 (stereo not drawn) = -0.416
Nc1nc(C2CCN(C(=O)c3cscn3)CC2)cs1 = -5.08
CC(C)(CNC(=O)OC(C)(C)C)NC(=O)C1CC(=O)N(C2CC2)C1 (stereo not drawn) = -4.06
CCOC(CC)C(=O)NCCC(=O)N1CCN(c2ccccn2)CC1 (stereo not drawn) = 0.201
Cc1cccc2c1OCCC2NCc1c(C)nn(C)c1N(C)C (stereo not drawn) = -18.2
CC(C)c1nc(C2CCCN2C(=O)c2ccc(N(C)C)nn2)no1 (stereo not drawn) = -5.4
O=C([C@@H]1CC[C@@H]2[C@@H](CCN2Cc2ccoc2)O1)N1CCCC1 = -3.6
COCC(NC(=O)c1cnn(C)c1)c1cccc(C(F)(F)F)c1 (stereo not drawn) = 0.364
CN(Cc1cn2c(n1)CN(CC1CC1)CC2)Cc1ccco1 = -4.14
O=C(CCCc1nc2ccccc2[nH]1)N1CCCC(n2cccn2)C1 (stereo not drawn) = -12
